Value source: BigSolDB 2.1

Details: in toluene, 334.65 K
quantity-kind: solubility (mole fraction)

Q: Using the record for C=CC(=O)Nc1cc(F)c(Br)c(F)c1 , report its solubility (mole fraction).
A: 0.0051

----------
Conditions: in acetonitrile, 298.25 K
quantity-kind: solubility (mole fraction)
Number, no unit, nothing else.

Q: Using the record for C=CC(=O)Nc1cc(F)c(Br)c(F)c1 , report its solubility (mole fraction).
A: 0.0104

----------
Settings: in pyridine, 288.95 K
quantity-kind: solubility (mole fraction)
Number, no unit, nothing else.

Q: Using the record for C=CC(=O)Nc1cc(F)c(Br)c(F)c1 , report its solubility (mole fraction).
A: 0.139

----------
Details: in pyridine, 310.25 K
quantity-kind: solubility (mole fraction)
Number, no unit, nothing else.

Q: Using the record for C=CC(=O)Nc1cc(F)c(Br)c(F)c1 , report its solubility (mole fraction).
A: 0.178

----------
Settings: in acetonitrile, 316.65 K
quantity-kind: solubility (mole fraction)
Number, no unit, nothing else.

Q: Using the record for C=CC(=O)Nc1cc(F)c(Br)c(F)c1 , report its solubility (mole fraction).
A: 0.0217

----------
Conditions: in benzene, 302.95 K
quantity-kind: solubility (mole fraction)
Number, no unit, nothing else.

Q: Using the record for C=CC(=O)Nc1cc(F)c(Br)c(F)c1 , report its solubility (mole fraction).
A: 0.0011

----------
Conditions: in acetonitrile, 337.75 K
quantity-kind: solubility (mole fraction)
Number, no unit, nothing else.

Q: Using the record for C=CC(=O)Nc1cc(F)c(Br)c(F)c1 , report its solubility (mole fraction).
A: 0.0482

----------
Details: in toluene, 319.25 K
quantity-kind: solubility (mole fraction)
Number, no unit, nothing else.

Q: Using the record for C=CC(=O)Nc1cc(F)c(Br)c(F)c1 , report its solubility (mole fraction).
A: 0.0026

----------
Settings: in acetonitrile, 291.45 K
quantity-kind: solubility (mole fraction)

Q: Using the record for C=CC(=O)Nc1cc(F)c(Br)c(F)c1 , report its solubility (mole fraction).
A: 0.0079

----------
Conditions: in methanol, 294.25 K
quantity-kind: solubility (mole fraction)
Number, no unit, nothing else.

Q: Using the record for C=CC(=O)Nc1cc(F)c(Br)c(F)c1 , report its solubility (mole fraction).
A: 0.0142

----------
Conditions: in methanol, 327.45 K
quantity-kind: solubility (mole fraction)

Q: Using the record for C=CC(=O)Nc1cc(F)c(Br)c(F)c1 , report its solubility (mole fraction).
A: 0.0391

----------
Conditions: in acetonitrile, 346.35 K
quantity-kind: solubility (mole fraction)

Q: Using the record for C=CC(=O)Nc1cc(F)c(Br)c(F)c1 , report its solubility (mole fraction).
A: 0.0662

----------
Details: in methanol, 312.35 K
quantity-kind: solubility (mole fraction)
Number, no unit, nothing else.

Q: Using the record for C=CC(=O)Nc1cc(F)c(Br)c(F)c1 , report its solubility (mole fraction).
A: 0.0249

----------
Details: in pyridine, 348.85 K
quantity-kind: solubility (mole fraction)
Number, no unit, nothing else.

Q: Using the record for C=CC(=O)Nc1cc(F)c(Br)c(F)c1 , report its solubility (mole fraction).
A: 0.273

----------
Conditions: in ethanol, 297.65 K
quantity-kind: solubility (mole fraction)
Number, no unit, nothing else.

Q: Using the record for C=CC(=O)Nc1cc(F)c(Br)c(F)c1 , report its solubility (mole fraction).
A: 0.0264

----------
Settings: in benzene, 332.05 K
quantity-kind: solubility (mole fraction)
Number, no unit, nothing else.

Q: Using the record for C=CC(=O)Nc1cc(F)c(Br)c(F)c1 , report its solubility (mole fraction).
A: 0.0044

----------
Settings: in methanol, 328.95 K
quantity-kind: solubility (mole fraction)

Q: Using the record for C=CC(=O)Nc1cc(F)c(Br)c(F)c1 , report its solubility (mole fraction).
A: 0.041

----------
Conditions: in toluene, 323.75 K
quantity-kind: solubility (mole fraction)
Number, no unit, nothing else.

Q: Using the record for C=CC(=O)Nc1cc(F)c(Br)c(F)c1 , report its solubility (mole fraction).
A: 0.003

----------
Conditions: in toluene, 312.05 K
quantity-kind: solubility (mole fraction)
Number, no unit, nothing else.

Q: Using the record for C=CC(=O)Nc1cc(F)c(Br)c(F)c1 , report its solubility (mole fraction).
A: 0.0019

----------
Details: in acetonitrile, 323.85 K
quantity-kind: solubility (mole fraction)
Number, no unit, nothing else.

Q: Using the record for C=CC(=O)Nc1cc(F)c(Br)c(F)c1 , report its solubility (mole fraction).
A: 0.0288

----------
Settings: in acetonitrile, 301.85 K
quantity-kind: solubility (mole fraction)
Number, no unit, nothing else.

Q: Using the record for C=CC(=O)Nc1cc(F)c(Br)c(F)c1 , report its solubility (mole fraction).
A: 0.0121

----------
Conditions: in acetonitrile, 320.05 K
quantity-kind: solubility (mole fraction)
Number, no unit, nothing else.

Q: Using the record for C=CC(=O)Nc1cc(F)c(Br)c(F)c1 , report its solubility (mole fraction).
A: 0.0248

----------
Details: in toluene, 331.15 K
quantity-kind: solubility (mole fraction)

Q: Using the record for C=CC(=O)Nc1cc(F)c(Br)c(F)c1 , report its solubility (mole fraction).
A: 0.0043

----------
Details: in pyridine, 303.85 K
quantity-kind: solubility (mole fraction)
Number, no unit, nothing else.

Q: Using the record for C=CC(=O)Nc1cc(F)c(Br)c(F)c1 , report its solubility (mole fraction).
A: 0.166

----------
Details: in toluene, 342.35 K
quantity-kind: solubility (mole fraction)
Number, no unit, nothing else.

Q: Using the record for C=CC(=O)Nc1cc(F)c(Br)c(F)c1 , report its solubility (mole fraction).
A: 0.0069

----------
Conditions: in benzene, 347.05 K
quantity-kind: solubility (mole fraction)
Number, no unit, nothing else.

Q: Using the record for C=CC(=O)Nc1cc(F)c(Br)c(F)c1 , report its solubility (mole fraction).
A: 0.0094

----------
Conditions: in acetonitrile, 331.75 K
quantity-kind: solubility (mole fraction)
Number, no unit, nothing else.

Q: Using the record for C=CC(=O)Nc1cc(F)c(Br)c(F)c1 , report its solubility (mole fraction).
A: 0.0386

----------
Conditions: in benzene, 335.95 K
quantity-kind: solubility (mole fraction)
Number, no unit, nothing else.

Q: Using the record for C=CC(=O)Nc1cc(F)c(Br)c(F)c1 , report its solubility (mole fraction).
A: 0.0054

----------
Conditions: in pyridine, 317.05 K
quantity-kind: solubility (mole fraction)
Number, no unit, nothing else.

Q: Using the record for C=CC(=O)Nc1cc(F)c(Br)c(F)c1 , report its solubility (mole fraction).
A: 0.193

----------
Conditions: in methanol, 321.05 K
quantity-kind: solubility (mole fraction)
Number, no unit, nothing else.

Q: Using the record for C=CC(=O)Nc1cc(F)c(Br)c(F)c1 , report its solubility (mole fraction).
A: 0.0325

----------
Conditions: in methanol, 298.65 K
quantity-kind: solubility (mole fraction)

Q: Using the record for C=CC(=O)Nc1cc(F)c(Br)c(F)c1 , report its solubility (mole fraction).
A: 0.0163

----------
Details: in toluene, 295.95 K
quantity-kind: solubility (mole fraction)
Number, no unit, nothing else.

Q: Using the record for C=CC(=O)Nc1cc(F)c(Br)c(F)c1 , report its solubility (mole fraction).
A: 0.0009

----------
Settings: in pyridine, 292.45 K
quantity-kind: solubility (mole fraction)
Number, no unit, nothing else.

Q: Using the record for C=CC(=O)Nc1cc(F)c(Br)c(F)c1 , report its solubility (mole fraction).
A: 0.145

----------
Settings: in toluene, 292.05 K
quantity-kind: solubility (mole fraction)
Number, no unit, nothing else.

Q: Using the record for C=CC(=O)Nc1cc(F)c(Br)c(F)c1 , report its solubility (mole fraction).
A: 0.0008

----------
Settings: in toluene, 316.05 K
quantity-kind: solubility (mole fraction)
Number, no unit, nothing else.

Q: Using the record for C=CC(=O)Nc1cc(F)c(Br)c(F)c1 , report its solubility (mole fraction).
A: 0.0022

----------
Conditions: in acetonitrile, 284.65 K
quantity-kind: solubility (mole fraction)

Q: Using the record for C=CC(=O)Nc1cc(F)c(Br)c(F)c1 , report its solubility (mole fraction).
A: 0.006

----------
Details: in acetonitrile, 327.65 K
quantity-kind: solubility (mole fraction)
Number, no unit, nothing else.

Q: Using the record for C=CC(=O)Nc1cc(F)c(Br)c(F)c1 , report its solubility (mole fraction).
A: 0.0332

----------
Conditions: in toluene, 291.95 K
quantity-kind: solubility (mole fraction)

Q: Using the record for C=CC(=O)Nc1cc(F)c(Br)c(F)c1 , report its solubility (mole fraction).
A: 0.0008

----------
Details: in ethanol, 295.25 K
quantity-kind: solubility (mole fraction)
Number, no unit, nothing else.

Q: Using the record for C=CC(=O)Nc1cc(F)c(Br)c(F)c1 , report its solubility (mole fraction).
A: 0.0251

----------
Conditions: in methanol, 308.45 K
quantity-kind: solubility (mole fraction)
Number, no unit, nothing else.

Q: Using the record for C=CC(=O)Nc1cc(F)c(Br)c(F)c1 , report its solubility (mole fraction).
A: 0.0221
